Origin of the recorded values: patent US20210253520A1

The following compounds are listed with their measured Tubular casts, Partial AS values.
test system: Swiss CD-1 female mice; assay: Nephrotoxicity study, histopathological scoring of kidney lesions; type: in vivo; settings: Table 6; sum of mouse scores; 12 mg/Kg every 2 hours × 6, subcutaneous, total 72 mg/Kg
Numbered stars: 1 amine (or outer) side, 2 acyl side, 3 side chain; on linkers, the order of the positions; unused ones are H or OH. Bridge positions count the residues as written; N and C are the ends. Square brackets hold non-standard residues; d marks the D form. Peptide text beside a SMILES is read from it. X1 = C[C@@H](O)[C@@H](CS[*:1])N[*:2]; dGly(nOct) = CCCCCCCC[C@@H](N)C(=O)O; Hica(2S) = CC(C)C[C@H](O)C(=O)O; Dab = NCC[C@H](N)C(=O)O
The answer should be a number; do not append a unit.

>>> assay_result("CCCCCCCC[C@@H](N)C(=O)N[C@H](C(=O)N[C@@H](CCN)C(=O)N[C@H]1CSSC[C@H]([C@@H](C)O)NC(=O)[C@H](CCN)NC(=O)[C@H](CCN)NC(=O)[C@H](CC(C)C)OC(=O)[C@@H](Cc2ccccc2)NC(=O)[C@H](CCN)NC1=O)[C@@H](C)O [Example 10] (H-[dGly(nOct)]T[Dab]C[Dab][dF][Hica(2S)][Dab][Dab]; linker 4-C via X1)")
0
>>> assay_result("CCCCCCCC[C@@H](N)C(=O)N[C@H](C(=O)N[C@@H](CCN)C(=O)N[C@H]1CSSC[C@H]([C@@H](C)O)NC(=O)[C@H](CCN)NC(=O)[C@H](CCN)NC(=O)[C@H](CC(C)C)OC(=O)[C@@H](CC(C)C)NC(=O)[C@H](CCN)NC1=O)[C@@H](C)O [Example 8] (H-[dGly(nOct)]T[Dab]C[Dab][dL][Hica(2S)][Dab][Dab]; linker 4-C via X1)")
0
>>> assay_result("CCCCCCCC[C@@H](N)C(=O)N[C@H](C(=O)N[C@@H](CCN)C(=O)N[C@H]1CSSC[C@H]([C@@H](C)O)NC(=O)[C@H](CCN)NC(=O)[C@H](CCN)NC(=O)[C@H](CC(C)C)NC(=O)[C@@H](CC(C)C)NC(=O)[C@H](CCN)NC1=O)[C@@H](C)O [Example 6] (H-[dGly(nOct)]T[Dab]C[Dab][dL]L[Dab][Dab]; linker 4-C via X1; N-terminus assumed)")
1

Kindly consider the entry below.
# get_value(readout='Tubular casts, Partial AS', item= CCCCCCCC[C@@H](N)C(=O)N[C@H](C(=O)N[C@@H](CCN)C(=O)N[C@H]1CSSC[C@H]([C@@H](C)O)NC(=O)[C@H](CCN)NC(=O)[C@H](CCN)NC(=O)[C@H](CC(C)C)NC(=O)[C@@H](Cc2ccccc2)NC(=O)[C@H](CCN)NC1=O)[C@@H](C)O [Example 5] (H-[dGly(nOct)]T[Dab]C[Dab][dF]L[Dab][Dab]; linker 4-C via X1; N-terminus assumed) )
0

###

tested on: Swiss CD-1 female mice; experiment: Nephrotoxicity study, histopathological scoring of kidney lesions; format: in vivo; parameters: key: mean of per-animal summed 0-4 lesion scores; higher = more nephrotoxic; conditions: Table 6; mean of animal scores; 12 mg/Kg every 2 hours × 6, subcutaneous, total 72 mg/Kg
Numbered stars: 1 amine (or outer) side, 2 acyl side, 3 side chain; on linkers, the order of the positions; unused ones are H or OH. Bridge positions count the residues as written; N and C are the ends. Square brackets hold non-standard residues; d marks the D form. Peptide text beside a SMILES is read from it. X1 = C[C@@H](O)[C@@H](CS[*:1])N[*:2]; dGly(nOct) = CCCCCCCC[C@@H](N)C(=O)O; Dab = NCC[C@H](N)C(=O)O
Endpoint Label: Group Score (GS)
The answer should be a number; do not append a unit.

Test system Swiss CD-1 female mice; read-out Group Score (GS); what value for CCCCCCCC[C@@H](N)C(=O)N[C@H](C(=O)N[C@@H](CCN)C(=O)N[C@H]1CSSC[C@H]([C@@H](C)O)NC(=O)[C@H](CCN)NC(=O)[C@H](CCN)NC(=O)[C@H](CC(C)C)NC(=O)[C@@H](Cc2ccccc2)NC(=O)[C@H](CCN)NC1=O)[C@@H](C)O [Example 5] (H-[dGly(nOct)]T[Dab]C[Dab][dF]L[Dab][Dab]; linker 4-C via X1; N-terminus assumed) ?
0.4

###

The following compounds are listed with their measured MIC values.
test system: P. aeruginosa ATCC 27853; assay: microbe, parasite or virus in culture; type: cell-based; details: Pseudomonas aeruginosa, ATCC27853; resistance profile of strain P. aeruginosa ATCC 27853, Table 3; read-out: MIC
Give the quantity in µg/mL, number only.

Past entries and their recorded results:
>>> assay_result("C[C@H]1COc2c(N3CCN(C)CC3)c(F)cc3c(=O)c(C(=O)O)cn1c23 [Lev, Levofloxacin]")
1.5
>>> assay_result("C[C@@H](O)[C@H]1C(=O)N2C(C(=O)O)=C(SCCN=CN)C[C@H]12 [IP, Imipenem]")
2
>>> assay_result("CO/N=C(\\C(=O)N[C@@H]1C(=O)N2C(C(=O)[O-])=C(C[N+]3(C)CCCC3)CS[C@H]12)c1csc(N)n1 [FEP, Cefepime]")
1
>>> assay_result("O=C(O)c1cn(C2CC2)c2cc(N3CCNCC3)c(F)cc2c1=O [Cip, Ciprofloxacin]")
0.25
>>> assay_result("C[C@@H](O)[C@H]1C(=O)N2C(C(=O)O)=C(S[C@@H]3CN[C@H](C(=O)N(C)C)C3)[C@H](C)[C@H]12 [MP, Meropenem]")
0.38

Test system P. aeruginosa ATCC 27853; read-out MIC; what value for NCC[C@H](O)C(=O)N[C@@H]1C[C@H](N)[C@@H](O[C@H]2O[C@H](CN)[C@@H](O)[C@H](O)[C@H]2O)[C@H](O)[C@H]1O[C@H]1O[C@H](CO)[C@@H](O)[C@H](N)[C@H]1O [Ak, Amikacin] ?
4

###

test system: Swiss CD-1 female mice; experiment: Nephrotoxicity study, histopathological scoring of kidney lesions; type: in vivo; conditions: Table 6; sum of mouse scores; 12 mg/Kg every 2 hours × 6, subcutaneous, total 72 mg/Kg
Numbered stars: 1 amine (or outer) side, 2 acyl side, 3 side chain; on linkers, the order of the positions; unused ones are H or OH. Bridge positions count the residues as written; N and C are the ends. Square brackets hold non-standard residues; d marks the D form. Peptide text beside a SMILES is read from it. X1 = C[C@@H](O)[C@@H](CS[*:1])N[*:2]; dGly(nOct) = CCCCCCCC[C@@H](N)C(=O)O; Dab = NCC[C@H](N)C(=O)O
Endpoint Label: Cell vacuolization, Partial AS

# get_value(readout='Cell vacuolization, Partial AS', item= CCCCCCCC[C@@H](N)C(=O)N[C@H](C(=O)N[C@@H](CCN)C(=O)N[C@H]1CSSC[C@H]([C@@H](C)O)NC(=O)[C@H](CCN)NC(=O)[C@H](CCN)NC(=O)[C@H](CC(C)C)NC(=O)[C@@H](CC(C)C)NC(=O)[C@H](CCN)NC1=O)[C@@H](C)O [Example 6] (H-[dGly(nOct)]T[Dab]C[Dab][dL]L[Dab][Dab]; linker 4-C via X1; N-terminus assumed) )
0

###

system: Swiss CD-1 female mice; test: Nephrotoxicity study, histopathological scoring of kidney lesions; type: in vivo; conditions: Table 8; 12 mg/Kg every 2 hours × 6 sc, total 72 mg/Kg; 3 mice
Endpoint Label: Group Score (GS)
The answer should be a number; do not append a unit.

Past entries and their recorded results:
>>> assay_result("Heptanoyl-Dab-Thr-Dab-cyclo(S-S)[Cys-Dab-DAoc-Nle-Dab-Dab-DCys] [compound 3]")
8
>>> assay_result("DAoc-Thr-Dab-cyclo(S-S)[Cys-Dab-DNIe-Leu-Dab-Dab-DCys] [compound 5]")
4.3
>>> assay_result("Nonanoyl-Dab-Thr-Dab-cyclo(S-S)[Cys-Dab-DPhe-Leu-Dab-Dab-Cys] [compound 1]")
4

Kindly consider the entry below.
# get_value(readout='Group Score (GS)', item= Decanoyl-Dab-Thr-Dab-cyclo(S-S)[Cys-Dab-DPhe-Nle-Dab-Dab-DCys] [compound 2] )
4

###

Tested on: Swiss CD-1 female mice
Test: Nephrotoxicity study, histopathological scoring of kidney lesions
Format: in vivo
Conditions: Table 6; 12 mg/Kg every 2 hours × 6, subcutaneous, total 72 mg/Kg
Description: Swiss CD-1 female mice weighing approximately 20-24 g (JANVIER Labs) were used, housed in an individually ventilated cage system under specific pathogen-free conditions, and water and food supplied ad libitum. […] Kidney lesions (tubule dilation, necrosis, tubule casts, cell vacuolization, cell desquamation, and cell swelling) were quantified by microscopical observation (see for instance, Roberts, ACS Infect. Dis., 2015, 1, 568). […]
Numbered stars: 1 amine (or outer) side, 2 acyl side, 3 side chain; on linkers, the order of the positions; unused ones are H or OH. Bridge positions count the residues as written; N and C are the ends. Square brackets hold non-standard residues; d marks the D form. Peptide text beside a SMILES is read from it. X1 = C[C@@H](O)[C@@H](CS[*:1])N[*:2]; dGly(nOct) = CCCCCCCC[C@@H](N)C(=O)O; Hica(2S) = CC(C)C[C@H](O)C(=O)O; Dab = NCC[C@H](N)C(=O)O
Endpoint Label: Mice found dead

>>> assay_result("CCCCCCCC[C@@H](N)C(=O)N[C@H](C(=O)N[C@@H](CCN)C(=O)N[C@H]1CSSC[C@H]([C@@H](C)O)NC(=O)[C@H](CCN)NC(=O)[C@H](CCN)NC(=O)[C@H](CC(C)C)NC(=O)[C@@H](Cc2ccccc2)NC(=O)[C@H](CCN)NC1=O)[C@@H](C)O [Example 5] (H-[dGly(nOct)]T[Dab]C[Dab][dF]L[Dab][Dab]; linker 4-C via X1; N-terminus assumed)")
"None"
>>> assay_result("CCCCCCCC[C@@H](N)C(=O)N[C@H](C(=O)N[C@@H](CCN)C(=O)N[C@H]1CSSC[C@H]([C@@H](C)O)NC(=O)[C@H](CCN)NC(=O)[C@H](CCN)NC(=O)[C@H](CC(C)C)OC(=O)[C@@H](Cc2ccccc2)NC(=O)[C@H](CCN)NC1=O)[C@@H](C)O [Example 10] (H-[dGly(nOct)]T[Dab]C[Dab][dF][Hica(2S)][Dab][Dab]; linker 4-C via X1)")
"None"
>>> assay_result("CCCCCCCC[C@@H](N)C(=O)N[C@H](C(=O)N[C@@H](CCN)C(=O)N[C@H]1CSSC[C@H]([C@@H](C)O)NC(=O)[C@H](CCN)NC(=O)[C@H](CCN)NC(=O)[C@H](CC(C)C)OC(=O)[C@@H](CC(C)C)NC(=O)[C@H](CCN)NC1=O)[C@@H](C)O [Example 8] (H-[dGly(nOct)]T[Dab]C[Dab][dL][Hica(2S)][Dab][Dab]; linker 4-C via X1)")
"None"
